Give measured pIC50 for each item. Keep answers brief.
target: Human immunodeficiency virus type 1 reverse transcriptase (Human immunodeficiency virus 1, UniProt Q72547, V106A); assay: Inhibitory activity against HIV-1 Mutant Reverse transcriptase V106A
One number for each entry, as −log10 of the molar value.

# Molecule, pIC50
measured = [
    ("CCN1c2ncc(CCc3ccncc3)cc2C(=O)N(C)c2ccc(F)nc21", 6.60),
]

Consider the record given below.
// sample CCN1c2ncc(CCc3cccc(N)c3)cc2C(=O)N(C)c2ccc(Cl)nc21 , its pIC50 was 7.05

---

molecular target: Human immunodeficiency virus type 1 reverse transcriptase (Human immunodeficiency virus 1, UniProt Q72547, Y181C); assay: Inhibitory activity against HIV-1 Y181C reverse transcriptase.
Give pIC50 for every item shown.
Numbers only, as −log10 of the molar value.

Observe how each entry below is paired with its result.
# Molecule, pIC50
measured = [
    ("CCN1c2ncc(CCc3cccc(N=[N+]=[N-])c3)cc2C(=O)N(C)c2ccc(Cl)nc21", 6.80),
    ("CCN1c2ncc(CCc3cccc(NC(N)=O)c3)cc2C(=O)N(C)c2ccc(Cl)nc21", 7.10),
    ("CCN1c2ncc(CCCc3ccccc3)cc2C(=O)N(C)c2cccnc21", 5.93),
    ("CCN1c2ncc(CCc3ccccc3N)cc2C(=O)N(C)c2cccnc21", 5.77),
    ("CCN1c2ncc(CCc3ccnc(C(N)=O)c3)cc2C(=O)N(C)c2ccc(Cl)nc21", 6.60),
    ("CCN1c2ncc(CCc3cccnc3)cc2C(=O)N(C)c2cccnc21", 6.49),
    ("CCN1c2ncc(CCc3ccccc3C)cc2C(=O)N(C)c2cccnc21", 5.80),
    ("CCN1c2ncc(CCc3cccc(C)c3)cc2C(=O)N(C)c2cccnc21", 6.55),
    ("CCN1c2ncc(CCc3ccc4ccccc4c3)cc2C(=O)N(C)c2ccc(Cl)nc21", 5.54),
    ("CCN1c2ncc(CCc3ccccc3)cc2C(=O)N(C)c2cccnc21", 6.89),
]

For each entry beneath this line, provide reported pIC50.
1. CCN1c2ncc(CCc3ccnc(CO)c3)cc2C(=O)N(C)c2ccc(Cl)nc21
2. CCN1c2ncc(CCc3cccc(C)c3)cc2C(=O)N(C)c2ccc(Cl)nc21
3. CCN1c2ncc(CCc3ccncc3)cc2C(=O)N(C)c2ccc(C#N)nc21
4. CCN1c2ncc(CCc3ccc(N)cc3)cc2C(=O)N(C)c2ccc(Cl)nc21
5. CCN1c2ncc(CCc3nccs3)cc2C(=O)N(C)c2cccnc21
6. CCN1c2ncc(CCc3ccc4ccccc4c3)cc2C(=O)N(C)c2cccnc21
7. CCN1c2ncc(CO)cc2C(=O)N(C)c2cccnc21
8. CCN1c2ncc(CCc3ccc(C)cc3)cc2C(=O)N(C)c2cccnc21

Output line:
[6.55, 6.34, 6.54, 6.44, 6.36, 6.82, 6.13, 6.60]

Entry CCN1c2ncc(CCc3cccc(N)c3)cc2C(=O)N(C)c2cccnc21 , pIC50 reported as 7.15

---

molecular target: Human immunodeficiency virus type 1 reverse transcriptase (Human immunodeficiency virus 1, UniProt Q72547, G190A); assay: Inhibitory activity against HIV-1 Mutant Reverse transcriptase G190A
Record form. Attribute: IC50. Fill in for each entry.
Give bare numbers, in nM.

# Molecule, IC50, nM
data = [
    ("CCN1c2ncc(CCc3cccc(N)c3)cc2C(=O)N(C)c2ccc(Cl)nc21", 10),
]

Please find the next compound below.
The compound listed as CCN1c2ncc(CCc3ccncc3)cc2C(=O)N(C)c2ccc(F)nc21 shows IC50 equal to 60
